Test system: cathepsin B (Homo sapiens)
Property: IC50 (µM)
Hi! Could you send only the number? It should be in µM, unit omitted.

Task item: Look at this compound and give its reported IC50. CC(C)COC[C@H](CC(C)C)NC(=O)[C@H]1O[C@@H]1C(=O)O [cysteine protease inhibitor]
Reply: 0.284

###

Test system: UniProt P25774
Sequence (P25774 115-331, species assumed): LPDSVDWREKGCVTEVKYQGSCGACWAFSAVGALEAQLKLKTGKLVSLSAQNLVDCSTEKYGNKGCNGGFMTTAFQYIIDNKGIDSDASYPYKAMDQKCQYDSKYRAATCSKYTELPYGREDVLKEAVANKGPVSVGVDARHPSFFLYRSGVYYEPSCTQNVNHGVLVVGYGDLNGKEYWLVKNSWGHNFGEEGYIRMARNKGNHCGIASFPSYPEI
Property: IC50 (nM)
Your answer should be a plain number; it is taken to be in nM.

Task item: What value of measured IC50 is listed for CC(C)COC[C@H](CC(C)C)NC(=O)[C@H]1O[C@@H]1C(=O)O [cysteine protease inhibitor] ?
Reply: 186
